src = PubChem BioAssay

Property: composite z-score; scope: individual compounds
Molecular target: Dickkopf-related protein 1 (Homo sapiens) (UniProt O94907)
Sequence (O94907 whole entry, looked up): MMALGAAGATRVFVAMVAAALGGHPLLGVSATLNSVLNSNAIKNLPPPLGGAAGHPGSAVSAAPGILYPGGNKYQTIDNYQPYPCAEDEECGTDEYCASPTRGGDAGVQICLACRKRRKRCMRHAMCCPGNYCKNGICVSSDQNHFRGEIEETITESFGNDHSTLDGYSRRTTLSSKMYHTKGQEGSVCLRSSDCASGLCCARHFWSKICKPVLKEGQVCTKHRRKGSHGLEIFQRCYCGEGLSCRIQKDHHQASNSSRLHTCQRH
Assay: small molecules binding DKK1 protein – biochemical, small-molecule microarray, 635 nm fluorescence scan, primary screen (AID 1106);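 note: score merges emission near 667 nm with signal to noise over three replicate slides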
Conditions: higher = more signal

Tell me the measured composite z-score of CCCC[C@@H]1C[C@H]1[C@@H](NC(=O)c1ccco1)c1ccccc1 , please. -2.05

Give the measured composite z-score of O=C(NCc1ccccc1)[C@@H]1c2ccccc2C(=O)N(Cc2cc(F)cc(C(F)(F)F)c2)[C@H]1c1ccc(CO)cc1 . -0.0135

# get_value(readout='composite z-score', item= Cc1ccc(C(C)CC(O)C2C=CC3C(=O)NC(=O)C3N2Nc2ccccn2)o1 (stereo unspecified) ) 0.906

Any idea what composite z-score was measured for CCCCCCC#C[Si](O[C@H](c1ccccc1)c1cn([C@H](C)c2ccccc2)nn1)(C(C)C)C(C)C ? 1.25

Returns the measured composite z-score for the input compound. Input: CCCNC(=O)[C@@]1(C)c2ccccc2C(=O)N(Cc2cc(F)cc(C(F)(F)F)c2)[C@H]1c1ccc(CO)cc1 -1.44

GET /values?readout=composite z-score&item= CN1C(=O)C2C=CC(C(O)C(c3ccccc3)c3ccccc3)N(Nc3ccccc3)C2C1=O (stereo unspecified) -0.138

Quick one: composite z-score for CC(C)OC(=O)C1=CCC(c2cccc(Cl)c2)O1 (stereo unspecified) ? -2.24

Returns the measured composite z-score for the input compound. Input: COc1ccc([Si](C)(C)[C@H]2[C@H](CC(=O)N3CCC[C@H]3CO)O[C@@]3(C(=O)N(Cc4cccc(N5CCC5=O)c4)c4ccccc43)[C@@H]2C)cc1 0.672

Given the compound O=C1OCCC/C=C\[C@H]2OC34C=CCN(Cn5nnc6ccccc65)C(=O)[C@H]3N(CCCO)C(=O)[C@@H]4C12 (stereo partly specified) , what is its reported composite z-score? -1.16

Requested field: composite z-score. Item: COCCCNC(=O)[C@]1(Cc2ccccc2N=[N+]=[N-])N=C(c2ccc(OCCCO)cc2)O[C@@H]1c1ccccc1CN=[N+]=[N-] 0.318

====

Measured composite z-score by item
Assay: probe aCHRDL2 binding to arrayed compounds – biochemical, biotinylated probe, 635/667 nm fluorescence, primary screen (AID 1100)
Settings: small-molecule microarray, higher = more signal
Would you mind answering with just the numeric figure?

Tell me the measured composite z-score of O=C1O[C@H](c2ccccc2)[C@H](c2ccccc2)N2[C@H]1[C@@H](C(=O)NC[C@H](O)c1ccccc1)[C@]1(C(=O)Nc3ccc(C#CC4=CCCCC4)cc31)[C@H]2c1ccc(O)cc1 , please. 0.176

====

Target: Torsin-1A-interacting protein 1 (Homo sapiens)
Assay: compound microarray binding of lysate hLAP1 – cell lysate, small-molecule microarray, COS7 lysate, 635/667 nm fluorescence, primary screen (AID 1116)
Conditions: 635 nm fluorescence, higher = more signal
measured_metric: composite z-score
Respond with the number and no other words.

Examples with their reported composite z-score follow.
compound	measured_metric	reported_value
O=C(CS)NCCCCCCNC(=O)[C@H]1C[C@H]2C(=O)N3CCC[C@H]3C(=O)N2[C@H]1c1ccc(O)cc1	composite z-score	1.68
Cc1ccc(S[C@]2(C(=O)NCC(C)C)CC(=O)N(Cc3ccccc3)[C@@H]2c2ccc(CO)cc2)cc1	composite z-score	0.769
COc1ccc([Si](C)(C)[C@H]2[C@H](CCO)O[C@@]3(C(=O)N(Cc4ccccc4)c4ccc(N5C(=O)COc6ccccc65)cc43)[C@@H]2C)cc1	composite z-score	0.216
[N-]=[N+]=NCc1ccccc1C[C@]1(C(=O)N2CCOCC2)N=C(c2ccc(OCCCO)cc2)O[C@H]1c1ccccc1	composite z-score	0.68
COc1ccc([Si](C)(C)[C@@H]2[C@@H](CCn3cc([C@H](O)c4ccccc4)nn3)O[C@]3(C(=O)N(C)c4ccccc43)[C@H]2C)cc1	composite z-score	-0.173

Quick one: composite z-score for COc1ccc([Si](C)(C)[C@H]2[C@H](CCO)O[C@@]3(C(=O)N(Cc4cccc(N5C(=O)c6cccc7cccc5c67)c4)c4ccccc43)[C@@H]2C)cc1 ? 0.116

Form field: reported composite z-score of O=C1C2C=CC(C(O)c3ccc(B(O)O)cc3)N(Nc3ccc([N+](=O)[O-])cc3)C2C(=O)N1c1ccccc1 (configuration not stated) 0.151
